# TGT: Cytochrome P450 1A2 (Homo sapiens, UniProt P05177)
# Sequence (P05177 whole entry): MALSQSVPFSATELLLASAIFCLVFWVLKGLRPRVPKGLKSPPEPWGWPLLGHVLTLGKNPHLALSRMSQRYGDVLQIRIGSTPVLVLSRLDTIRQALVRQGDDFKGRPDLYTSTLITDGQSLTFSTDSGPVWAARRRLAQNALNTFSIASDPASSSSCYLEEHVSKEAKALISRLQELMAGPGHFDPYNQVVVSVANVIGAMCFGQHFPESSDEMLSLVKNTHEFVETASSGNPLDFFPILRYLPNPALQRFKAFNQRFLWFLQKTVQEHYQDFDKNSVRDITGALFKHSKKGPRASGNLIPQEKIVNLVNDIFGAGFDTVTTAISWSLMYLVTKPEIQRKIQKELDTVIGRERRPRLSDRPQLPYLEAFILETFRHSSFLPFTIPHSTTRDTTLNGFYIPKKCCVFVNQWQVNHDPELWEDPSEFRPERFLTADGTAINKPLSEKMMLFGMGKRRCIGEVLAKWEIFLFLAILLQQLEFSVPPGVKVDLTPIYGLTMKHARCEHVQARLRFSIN
# TEST: Drug metabolism in supersomes expressing human recombinant CYP1A2 assessed as enzyme-mediated clozapine-N-oxide metabolite formation at 10 uM after 30 mins measured per nmol of P450 by HPLC analysis
# Format: ADME
# CONDITION: 0.5 h
EXPERIMENTAL_ENDPOINT: Drug metabolism (nmol/min/nmol P450)
Write down the numeric answer in nmol/min/nmol P450 and omit the unit.

Field request: Drug metabolism | item: `CN1CCN(C2=Nc3cc(Cl)ccc3Nc3ccccc32)CC1`
0.55

###

# TGT: Cytochrome P450 2C19 (Homo sapiens, UniProt P33261)
# Sequence (P33261 whole entry): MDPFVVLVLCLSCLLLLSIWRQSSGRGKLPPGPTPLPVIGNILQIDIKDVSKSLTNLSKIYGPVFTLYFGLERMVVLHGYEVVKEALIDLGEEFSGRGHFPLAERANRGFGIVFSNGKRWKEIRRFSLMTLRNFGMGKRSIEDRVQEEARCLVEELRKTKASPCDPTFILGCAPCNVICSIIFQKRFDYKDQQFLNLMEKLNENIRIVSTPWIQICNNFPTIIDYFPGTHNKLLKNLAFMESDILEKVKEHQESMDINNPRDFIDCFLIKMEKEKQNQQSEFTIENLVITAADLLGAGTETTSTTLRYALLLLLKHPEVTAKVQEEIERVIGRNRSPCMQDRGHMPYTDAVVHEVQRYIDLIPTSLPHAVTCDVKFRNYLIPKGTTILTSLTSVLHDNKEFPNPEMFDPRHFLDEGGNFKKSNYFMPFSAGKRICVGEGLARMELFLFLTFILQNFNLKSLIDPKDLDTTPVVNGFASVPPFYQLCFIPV
# TEST: Drug metabolism in supersomes expressing human recombinant CYP2C19 assessed as enzyme-mediated N-desmethylclozapine metabolite formation at 10 uM after 30 mins measured per nmol of P450 by HPLC analysis
# Format: ADME
# CONDITION: 0.5 h
EXPERIMENTAL_ENDPOINT: Drug metabolism (nmol/min/nmol P450)
Output spec: scalar in nmol/min/nmol P450, unitless text.

Please report the recorded Drug metabolism for `CN1CCN(C2=Nc3cc(Cl)ccc3Nc3ccccc32)CC1` .
6.62

###

# TGT: Cytochrome P450 2C8 (Homo sapiens)
# Sequence (P10632 whole entry): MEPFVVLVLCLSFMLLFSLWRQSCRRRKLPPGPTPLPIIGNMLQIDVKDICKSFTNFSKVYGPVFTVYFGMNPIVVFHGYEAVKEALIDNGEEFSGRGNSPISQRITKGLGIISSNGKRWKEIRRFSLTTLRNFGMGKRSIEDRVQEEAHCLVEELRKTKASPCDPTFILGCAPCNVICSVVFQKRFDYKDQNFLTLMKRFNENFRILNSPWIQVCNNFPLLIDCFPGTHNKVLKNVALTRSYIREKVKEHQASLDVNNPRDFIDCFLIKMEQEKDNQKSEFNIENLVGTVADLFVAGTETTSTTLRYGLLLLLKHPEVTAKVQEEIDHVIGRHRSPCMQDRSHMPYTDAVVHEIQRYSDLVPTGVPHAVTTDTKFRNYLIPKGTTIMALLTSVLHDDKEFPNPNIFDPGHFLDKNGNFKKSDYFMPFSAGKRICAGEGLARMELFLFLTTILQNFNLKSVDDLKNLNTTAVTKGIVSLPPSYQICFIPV
# TEST: Drug metabolism in supersomes expressing human recombinant CYP2C8 assessed as enzyme-mediated clozapine-N-oxide metabolite formation at 100 uM after 30 mins measured per nmol of P450 by HPLC analysis
# Type: ADME
# CONDITION: 0.5 h
EXPERIMENTAL_ENDPOINT: Drug metabolism (nmol/min/nmol P450)
Output spec: scalar in nmol/min/nmol P450, unitless text.

What Drug metabolism value was documented for this compound, `CN1CCN(C2=Nc3cc(Cl)ccc3Nc3ccccc32)CC1` ?
0.075

###

# TGT: UniProt:P33260
# TEST: Drug metabolism in supersomes expressing human recombinant CYP2C18 assessed as enzyme-mediated N-desmethylclozapine metabolite formation at 100 uM after 30 mins measured per nmol of P450 by HPLC analysis
# Format: ADME
# CONDITION: 0.5 h
EXPERIMENTAL_ENDPOINT: Drug metabolism (nmol/min/nmol P450)
Please state the figure in nmol/min/nmol P450; there is no need to write the unit.

Test system UniProt:P33260; read-out Drug metabolism; what value for `CN1CCN(C2=Nc3cc(Cl)ccc3Nc3ccccc32)CC1` ?
5.71

###

# TGT: Cytochrome P450 1B1 (Homo sapiens)
# Sequence (Q16678 whole entry): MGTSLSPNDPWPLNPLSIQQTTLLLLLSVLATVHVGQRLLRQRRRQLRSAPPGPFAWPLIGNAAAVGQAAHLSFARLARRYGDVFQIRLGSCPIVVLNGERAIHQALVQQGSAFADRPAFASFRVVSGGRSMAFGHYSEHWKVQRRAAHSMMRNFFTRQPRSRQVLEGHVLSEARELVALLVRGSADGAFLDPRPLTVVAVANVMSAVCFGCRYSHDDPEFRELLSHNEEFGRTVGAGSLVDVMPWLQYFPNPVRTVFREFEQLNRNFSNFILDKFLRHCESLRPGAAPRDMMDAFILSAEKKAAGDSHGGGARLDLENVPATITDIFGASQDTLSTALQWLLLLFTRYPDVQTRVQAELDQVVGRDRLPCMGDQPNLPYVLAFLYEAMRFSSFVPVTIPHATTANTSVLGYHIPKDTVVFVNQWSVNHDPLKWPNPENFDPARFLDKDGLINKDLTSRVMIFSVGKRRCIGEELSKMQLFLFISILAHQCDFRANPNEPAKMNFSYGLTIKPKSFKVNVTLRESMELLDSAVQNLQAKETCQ
# TEST: Drug metabolism in supersomes expressing human recombinant CYP1B1 assessed as enzyme-mediated clozapine-N-oxide metabolite formation at 100 uM after 30 mins measured per nmol of P450 by HPLC analysis
# Type: ADME
# CONDITION: 0.5 h
EXPERIMENTAL_ENDPOINT: Drug metabolism
Dear colleague, please send the value followed by its unit.

So what does the record say about Drug metabolism for CN1CCN(C2=Nc3cc(Cl)ccc3Nc3ccccc32)CC1 [CLOZAPINE] ?
0.64 nmol/min/nmol P450

###

# TGT: Cytochrome P450 2C19 (Homo sapiens, UniProt P33261)
# TEST: Drug metabolism in supersomes expressing human recombinant CYP2C19 assessed as enzyme-mediated clozapine-N-oxide metabolite formation at 10 uM after 30 mins measured per nmol of P450 by HPLC analysis
# Type: ADME
# CONDITION: 0.5 h
EXPERIMENTAL_ENDPOINT: Drug metabolism

Entry under review: `CN1CCN(C2=Nc3cc(Cl)ccc3Nc3ccccc32)CC1` . Reported Drug metabolism?
0.71 nmol/min/nmol P450

###

# TGT: Cytochrome P450 2C19 (Homo sapiens, UniProt P33261)
# TEST: Drug metabolism in supersomes expressing human recombinant CYP2C19 assessed as enzyme-mediated clozapine-N-oxide metabolite formation at 100 uM after 30 mins measured per nmol of P450 by HPLC analysis
# Type: ADME
# CONDITION: 0.5 h
EXPERIMENTAL_ENDPOINT: Drug metabolism (nmol/min/nmol P450)
Report as a plain number; the unit nmol/min/nmol P450 is understood.

Return reported Drug metabolism; argument: `CN1CCN(C2=Nc3cc(Cl)ccc3Nc3ccccc32)CC1`
0.58

###

# TGT: Cytochrome P450 2C18 (Homo sapiens, UniProt P33260)
# Sequence (P33260 whole entry): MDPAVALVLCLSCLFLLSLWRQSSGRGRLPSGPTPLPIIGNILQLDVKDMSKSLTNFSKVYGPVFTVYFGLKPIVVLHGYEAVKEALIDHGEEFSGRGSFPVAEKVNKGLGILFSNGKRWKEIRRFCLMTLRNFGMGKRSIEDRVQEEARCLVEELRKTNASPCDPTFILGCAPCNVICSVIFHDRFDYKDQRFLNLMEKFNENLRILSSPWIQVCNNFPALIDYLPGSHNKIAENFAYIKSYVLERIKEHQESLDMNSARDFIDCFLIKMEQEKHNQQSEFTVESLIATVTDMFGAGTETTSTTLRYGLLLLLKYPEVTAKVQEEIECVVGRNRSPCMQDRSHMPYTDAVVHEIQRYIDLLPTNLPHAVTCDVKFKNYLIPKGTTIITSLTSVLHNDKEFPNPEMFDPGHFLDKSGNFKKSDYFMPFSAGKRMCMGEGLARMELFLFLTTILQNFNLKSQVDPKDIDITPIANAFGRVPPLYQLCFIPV
# TEST: Drug metabolism in supersomes expressing human recombinant CYP2C18 assessed as enzyme-mediated clozapine-N-oxide metabolite formation at 10 uM after 30 mins measured per nmol of P450 by HPLC analysis
# Assay type: ADME
# CONDITION: 0.5 h
EXPERIMENTAL_ENDPOINT: Drug metabolism (nmol/min/nmol P450)
Numbers only here, please. The scale is nmol/min/nmol P450.

Any idea what Drug metabolism was measured for `CN1CCN(C2=Nc3cc(Cl)ccc3Nc3ccccc32)CC1` ?
0.025
